Target chain: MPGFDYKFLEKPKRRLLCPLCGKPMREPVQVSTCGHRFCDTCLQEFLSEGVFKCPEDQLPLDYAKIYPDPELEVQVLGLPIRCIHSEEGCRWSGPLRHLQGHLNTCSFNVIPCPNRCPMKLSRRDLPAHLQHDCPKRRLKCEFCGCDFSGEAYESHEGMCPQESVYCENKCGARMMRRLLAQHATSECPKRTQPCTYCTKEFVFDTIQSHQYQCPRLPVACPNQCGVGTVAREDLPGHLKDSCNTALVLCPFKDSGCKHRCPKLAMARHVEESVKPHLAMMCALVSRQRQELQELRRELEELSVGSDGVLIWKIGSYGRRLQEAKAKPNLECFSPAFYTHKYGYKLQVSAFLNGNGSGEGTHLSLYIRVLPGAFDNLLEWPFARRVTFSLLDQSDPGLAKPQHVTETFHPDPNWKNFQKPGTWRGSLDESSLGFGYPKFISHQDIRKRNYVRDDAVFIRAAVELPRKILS

{"columns": ["Compound", "Reading Unit", "Kd"],
 "data": [
  ["COc1c(O)cc2oc(-c3ccccc3)cc(=O)c2c1O [OA, Oroxylin A]", "nM", 1100]
]}
